Quick reference: Spearman Coef. (ρ), sphingolipid level vs cytotoxicity of the listed items.
- System: MOLT-4
- Type: cell-based, human
reported-metric: Spearman Coef. (ρ), sphingolipid level vs cytotoxicity

| compound | quantitative-readout |
| --- | --- |
| CCCCCCCCCCCCCC=CC(O)C(CO)NC(=O)CCCCCCCCCCCCCCCCCCCCCCC (centres unmarked) [C24:0-Cer] | 0 |
| CCCCCCCCCCCCCC=CC(O)C(CO)NC(=O)CCCCCCCCCCCCCCCCC (centres unmarked) [C18:0-Cer] | −0.45 |
| CCCCCCCCCCCCCCCCCC(=O)N[C@@H](CO)[C@H](O)CCCCCCCCCCCCCCC [C18:0-DHCer] | 0.14 |
| CCCCCCCCCCCCCCCCCCCC(=O)N[C@@H](CO)[C@H](O)CCCCCCCCCCCCCCC [C20:0-DHCer] | 0.14 |
| CCCCCCCCCCCCCC=CC(O)C(CO)NC(=O)CCCCCCCCCCCCCCCCCCC (centres unmarked) [C20:0-Cer] | −0.52 |
| CCCCCCCCC=CCCCCCCCCCCCC(=O)NC(CO)C(O)C=CCCCCCCCCCCCCC (centres unmarked) [C22:1-Cer] | −0.48 |
| CCCCCCCC/C=C\CCCCCCCCCCCCCC(=O)N[C@@H](CO)[C@H](O)/C=C/CCCCCCCCCCCCC [C24:1-Cer] | −0.55 |
| CCCCCCCCCCCCCC=CC(O)C(CO)NC(=O)CCCCCCCCCCCCCCC (centres unmarked) [C16:0-Cer] | −0.76 |
| CCCCCCCC/C=C\CCCCCCCCCCCCCC(=O)N[C@@H](CO)[C@H](O)CCCCCCCCCCCCCCC [C24:1-DHCer] | 0.12 |
| CCCCCCCCCCCCCCCCCCCCCC(=O)N[C@@H](CO)[C@H](O)CCCCCCCCCCCCCCC [C22:0-DHCer] | 0.91 |
| CCCCCCCCCCCCCCC[C@@H](O)[C@H](CO)NC(=O)CCCCCCCCCCCCC [C14:0-DHCer] | 0.35 |
| CCCCCCCCC=CCCCCCCCCCCCC(=O)NC(CO)C(O)CCCCCCCCCCCCCCC (centres unmarked) [C22:1-DHCer] | 0.24 |
| CCCCCCCCCCCCC/C=C/[C@@H](O)[C@H](CO)NC(=O)CCCCCCCCCCCCC [C14:0-Cer] | −0.48 |
| CCCCCCCCCCCCCCCC(=O)N[C@@H](CO)[C@H](O)CCCCCCCCCCCCCCC [C16:0-DHCer] | 0.57 |
| CCCCCCCCCCCCCCCCCCCCCCCC(=O)N[C@@H](CO)[C@H](O)CCCCCCCCCCCCCCC [C24:0-DHCer] | 0.88 |
| CCCCCCCCC=CCCCCCCCC(=O)NC(CO)C(O)C=CCCCCCCCCCCCCC (centres unmarked) [C18:1-Cer] | −0.59 |
| CCCCCCCCCCCCCC=CC(O)C(CO)NC(=O)CCCCCCCCCCCCCCCCCCCCC (centres unmarked) [C22:0-Cer] | 0.31 |
